# Target System: chicken IgY (chicken)
# Test Summary: BLI; Octet, SAX (streptavidin) biosensors; recombinant Fabs against IgY; KD from a kinetic 1:1 model, global fit over multiple concentrations (partial fits averaged for 3 low-affinity Fabs)
Measurement Name: kon (M⁻¹ s⁻¹)
Numbers only, in M⁻¹ s⁻¹.

INSERT INTO measurements (binder, measurement_name, recorded_value) VALUES
  ('clone 2.1 Fab TA_27 (Fab, V domains shown) VH: EVQLQESGPSLVKPSQTLSLTCSVTGDSITSGYWNWIRKFPGNRLEYMGYISYSGSTYYNPSLKSRISITRDTSKNQYYLQLNSVTTEDTATYYCARDFDVWGAGTTVTVSS VL: DIVMTQSQKFMSTSVGDRVSVTCKASQNVGTNVGWFQQKPGQSPKSLIYSASYRYSGVPDRFTGSGSGTDFTLTISNVQSEDLAEYFCQQYSSYPLTFGSGTKLEIK', 'kon', 724000);

I need kon for every entry listed below, if you could help.
1. clone 2.1 Fab CB_10 (clonal burst) (Fab, V domains shown) VH: EVQLQESGPSLVKPSQTLSLTCSVTGDSITSGYWNWIRKFPGNKLEYMGYISYSGSTYYNPSLKSRISITRDTSKNQYYLQLNSVTTEDTATYYCGRDFDVWGAGTTVTVSS VL: DIVMTQSQKFMSTSVGDRVSVTCKASQNVGTNVGWYQQKPGQSPKALIYSASYRYSGVPDRFTGSGSGTDFTLTISNVQSEDLAEYFCQQYNRYPLTFGSGTKLEIK
2. clone 2.1 Fab TA_19 (Fab, V domains shown) VH: EVQLQESGPSLVKPSQTLSLTCSVTGDSITSGYWNWIRKFPGNKLEYMGYISYSGSTYYNPSLKSRISITRDTSKNQYYLQLNSVTTEDTATYYCARDFDVWGAGTTVTVSS VL: DIVMTQSQKFMSTSVGDRVSVTCKASQNVGTNVGWFQQKPGQSPKSLIYSASYRYSGVPDRFTGSGSGTDFTLTISNVQSEDLAEYFCHQYYSYPLTFGSGTKLEIK

Response given:
294000
331000
